# Test system: HCT116 WT cells
# assay-details: HCT116 WT cell proliferation / viability (CellTiter-Glo, 6 days)
# Type: cell-based
# cond: Homo sapiens, HCT-116, 144 h, HCT116 WT cells, 6 days, CellTiter-Glo; read-out: HCT-116 WT IC50
IC50 under 3 µM gets fulfilled, anything at or over 3 µM gets not fulfilled.

{"compound": "CCN(Cc1ccc(C(F)(F)F)cn1)C(=O)c1cc2c3c(c(N)nc2cn1)[C@@H](C)OC3 [Example 408]", "qualitative-label": "not fulfilled"}
{"compound": "COc1nc(C(F)(F)F)ccc1CN(C)C(=O)c1cc2c(cc1F)nc(N)c1cnn(C)c12 [Example 806]", "qualitative-label": "not fulfilled"}
{"compound": "CC[C@@H](c1cncnc1)N(Cc1ccc(S(F)(F)(F)(F)F)cc1)C(=O)c1cc2c(cn1)nc(N)c1cnn(C)c12 (single isomer, unassigned) [Example 872]", "qualitative-label": "not fulfilled"}
{"compound": "C[C@H](c1ncccn1)N(Cc1ccc(C(F)(F)F)cn1)C(=O)c1ccc2nc(N)c3c(c2c1)CCOC3 [Example 887]", "qualitative-label": "fulfilled"}
{"compound": "Nc1nc2cnc(C(=O)N(Cc3ccc(C(F)(F)F)nn3)C3CC(F)(F)C3)cc2c2c1COC2 [Example 668]", "qualitative-label": "not fulfilled"}
{"compound": "CN(Cc1ccc(C2CC2)cn1)C(=O)c1ccc2nc(N)c3c(c2c1)COC3 [Example 323]", "qualitative-label": "not fulfilled"}
{"compound": "Nc1nc2cc(F)c(C(=O)N(Cc3ccc(OCC(F)(F)F)nn3)CC3CC3)cc2c2c1COC2 [Example 816]", "qualitative-label": "fulfilled"}
{"compound": "CC(c1ncccn1)N(Cc1ccc(C(F)(F)F)cn1)C(=O)c1ccc2nc(N)c3c(c2c1)COC3 (racemic) [Example 640]", "qualitative-label": "fulfilled"}
{"compound": "COC[C@H](C1CC1)N(Cc1ccc(Br)nn1)C(=O)c1ccc2nc(N)c3sccc3c2c1 (single isomer, unassigned) [Example 650]", "qualitative-label": "fulfilled"}
{"compound": "C[C@@H](c1ccc(C(F)(F)F)cn1)N(C)C(=O)c1ccc2nc(N)c3cnn(C)c3c2c1 (single isomer, unassigned) [Example 601]", "qualitative-label": "not fulfilled"}
{"compound": "CCN(Cc1ccc(C(F)(F)F)cn1)C(=O)c1ccc2nc(N)c3c(c2c1)COC3 [Example 362]", "qualitative-label": "fulfilled"}
{"compound": "C[C@@H](NC(=O)c1ccc2nc(N)c3c(c2c1)CO[C@@H]3C)c1ccc(C(F)(F)F)cn1 [Example 768]", "qualitative-label": "not fulfilled"}
{"compound": "Cn1ncc2c3cc(C(=O)N(Cc4ccc(C(F)(F)F)cn4)C4(C)CC4)ccc3nc(N)c21 [Example 494]", "qualitative-label": "not fulfilled"}
{"compound": "CCN(Cc1ccc(Cl)cn1)C(=O)c1cc2c3c(c(N)nc2cn1)COC3 [Example 698]", "qualitative-label": "not fulfilled"}
{"compound": "CCOc1ccc(CN(CC)C(=O)c2cc3c4c(c(N)nc3cc2F)COC4)nn1 [Example 747]", "qualitative-label": "not fulfilled"}
{"compound": "COC[C@@H](C)N(Cc1ccc(Cl)nn1)C(=O)c1cc2c3c(c(N)nc2cn1)COC3 [Example 306]", "qualitative-label": "not fulfilled"}
{"compound": "CC(C)N(Cc1ccc(Cl)cn1)C(=O)c1cc2c3c(c(N)nc2cn1)COC3 [Example 718]", "qualitative-label": "not fulfilled"}
{"compound": "CCN(Cc1ccc(C(F)(F)F)nn1)C(=O)c1cc2c3c(c(N)nc2cn1)COC3 [Example 696]", "qualitative-label": "not fulfilled"}
{"compound": "CCN(Cc1ccc(C(F)(F)F)nn1)C(=O)c1ccc2nc(N)c3c(c2c1)CO[C@@H]3C [Example 551]", "qualitative-label": "not fulfilled"}
{"compound": "C[C@H]1OCc2c1c(N)nc1ccc(C(=O)N(Cc3ccc(C#N)cn3)CC3CC3)cc21 [Example 331]", "qualitative-label": "fulfilled"}
{"compound": "CC(C)N(Cc1ccc(Cl)cn1)C(=O)c1ccc2nc(N)c3c(c2c1)COC3 [Example 717]", "qualitative-label": "not fulfilled"}
{"compound": "CC(C)N(Cc1ccc(C#N)cn1)C(=O)c1cc2c3c(c(N)nc2cn1)[C@@H](C)OC3 [Example 404]", "qualitative-label": "not fulfilled"}
{"compound": "CC(CF)N(Cc1ccc(C#N)cn1)C(=O)c1ccc2nc(N)c3c(c2c1)COC3 (racemic) [Example 473]", "qualitative-label": "not fulfilled"}
{"compound": "Nc1nc2cnc(C(=O)N(Cc3ccc(C(F)(F)F)cn3)C34CC(C3)C4)cc2c2c1COC2 [Example 689]", "qualitative-label": "fulfilled"}
{"compound": "Cn1ncc2c(N)nc3cc(Cl)c(C(=O)N(Cc4ccc(C(F)(F)F)nn4)C4CCC4)cc3c21 [Example 799]", "qualitative-label": "fulfilled"}
{"compound": "Cn1ncc2c(N)nc3cc(Cl)c(C(=O)N(Cc4ccc(C(F)(F)F)cn4)C4CC4)cc3c21 [Example 795]", "qualitative-label": "fulfilled"}
{"compound": "CO[C@@H]1CCOC[C@H]1N(Cc1ccc(C(F)(F)F)cn1)C(=O)c1ccc2nc(N)c3c(c2c1)COC3 (racemic) [Example 460]", "qualitative-label": "fulfilled"}
{"compound": "Cc1cc2nc(N)c3cnn(C)c3c2cc1C(=O)N(C)Cc1ccc(C(F)(F)F)cn1 [Example 521]", "qualitative-label": "fulfilled"}
{"compound": "C[C@H]1OCc2c1c(N)nc1ccc(C(=O)N(Cc3ccc(C#N)cn3)C3CC3)cc21 [Example 355]", "qualitative-label": "not fulfilled"}
{"compound": "Nc1nc2cc(F)c(C(=O)N(Cc3ccc(C(F)(F)F)cn3)C3CC3)cc2c2c1COC2 [Example 369]", "qualitative-label": "not fulfilled"}
